Record form. Attribute: kon. Fill in for each entry.
# Target desc: T1, human C1s (human, UniProt P09871 16-688)
# T1 construct: also called hC1s; serum-derived human C1s (CompTech)
# T1 sequence: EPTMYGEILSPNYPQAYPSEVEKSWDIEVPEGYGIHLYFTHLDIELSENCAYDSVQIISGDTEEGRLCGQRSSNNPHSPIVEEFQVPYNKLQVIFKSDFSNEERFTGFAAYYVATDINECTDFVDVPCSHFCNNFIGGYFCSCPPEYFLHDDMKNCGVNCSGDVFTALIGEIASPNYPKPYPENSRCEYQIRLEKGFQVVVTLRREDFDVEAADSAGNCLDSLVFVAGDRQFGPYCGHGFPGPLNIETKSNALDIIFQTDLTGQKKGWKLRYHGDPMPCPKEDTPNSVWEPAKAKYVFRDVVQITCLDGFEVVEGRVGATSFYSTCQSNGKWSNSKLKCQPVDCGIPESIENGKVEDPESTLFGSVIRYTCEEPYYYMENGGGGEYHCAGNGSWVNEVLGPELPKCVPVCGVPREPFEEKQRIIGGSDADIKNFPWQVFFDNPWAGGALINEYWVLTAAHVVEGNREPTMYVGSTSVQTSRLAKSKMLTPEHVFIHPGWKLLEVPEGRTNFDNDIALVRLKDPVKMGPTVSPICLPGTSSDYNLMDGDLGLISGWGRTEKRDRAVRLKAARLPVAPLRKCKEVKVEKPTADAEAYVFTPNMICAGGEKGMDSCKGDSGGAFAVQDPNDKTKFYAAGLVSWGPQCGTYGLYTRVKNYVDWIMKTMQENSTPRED
# Assay: SPR, Ab captured; pH 7.4, 1.2 mM Ca
Write the number in M⁻¹ s⁻¹ without appending the unit.

Incoming: Given C1_IPN92H0188-SG4GK/IPN93L0024-SK1 (antibody, human IgG4 S228P, kappa, name in Kabat numbering, V domains shown, also called IPN92H0188/IPN93L0024) VH: EVMLVESGGGLVKPGGSLRLSCAASGFTFSNYAMSWVRQAPGKGLEWVATISSGGSHTYYLDSVDGRFTISRDNSKDTLYLQMNSLRAEDTALYYCARLFTGHAMDYWGQGTLVTVSS VL: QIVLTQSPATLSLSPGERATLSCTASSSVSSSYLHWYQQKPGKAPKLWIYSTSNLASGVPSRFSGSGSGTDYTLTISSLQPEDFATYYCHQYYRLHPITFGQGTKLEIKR , respond with its kon.
Outgoing: 271000

Incoming: Tell me its kon given C1_IPN92H0279-SG4GK/IPN93L0091-SK1 (antibody, human IgG4 S228P, kappa, name in Kabat numbering, V domains shown, also called IPN92H0279/IPN93L0091) VH: EVMLVESGGGLVKPGGSLRLSCAASGFTFSNYAMSWVRQAPGKGLEWVATISSGGSHTYELDSVKERFTISRDNSKDTLYLQMNSLRAEDTALYYCARLFTKHAMDYWGQGTLVTVSS VL: QIVLTQSPATLSLSPGERATLSCTASSSVSSSRLHWYQQKPGKAPKLWIYSTSNLASGVPSRFSGSGSGTDYTLTISSLQPEDFATYYCHQYYRLHPITFGQGTKLEIKR as the entry.
Outgoing: 1.31e+06

Incoming: Note down kon recorded for C1_IPN92H0157-SG4GK/IPN93L0024-SK1 (antibody, human IgG4 S228P, kappa, name in Kabat numbering, V domains shown, also called IPN92H0157/IPN93L0024) VH: EVMLVESGGGLVKPGGSLRLSCAASGFTFSNYAMSWVRQAPGKGLEWVATISSGGSHTRYLDSVKGRFTISRDNSKDTLYLQMNSLRAEDTALYYCARLFTGHAMDYWGQGTLVTVSS VL: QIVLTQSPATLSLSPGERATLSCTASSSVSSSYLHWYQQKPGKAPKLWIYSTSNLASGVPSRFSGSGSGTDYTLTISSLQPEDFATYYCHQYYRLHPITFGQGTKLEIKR
Outgoing: 340000

Incoming: Specify kon for C1_IPN92H0156-SG4GK/IPN93L0024-SK1 (antibody, human IgG4 S228P, kappa, name in Kabat numbering, V domains shown, also called IPN92H0156/IPN93L0024) VH: EVMLVESGGGLVKPGGSLRLSCAASGFTFSNYAMSWVRQAPGKGLEWVATISSGGSHTKYLDSVKGRFTISRDNSKDTLYLQMNSLRAEDTALYYCARLFTGHAMDYWGQGTLVTVSS VL: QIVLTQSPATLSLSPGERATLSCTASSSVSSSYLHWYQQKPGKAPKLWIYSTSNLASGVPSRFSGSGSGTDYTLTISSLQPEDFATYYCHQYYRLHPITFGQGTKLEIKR and stop.
Outgoing: 364000

Incoming: Find the measured kon of C1_IPN92H0145-SG4GK/IPN93L0024-SK1 (antibody, human IgG4 S228P, kappa, name in Kabat numbering, V domains shown, also called IPN92H0145/IPN93L0024) VH: EVMLVESGGGLVKPGGSLRLSCAASGFTFSNYAMSWVRQAPGKGLEWVATISSGGSRTYYLDSVKGRFTISRDNSKDTLYLQMNSLRAEDTALYYCARLFTGHAMDYWGQGTLVTVSS VL: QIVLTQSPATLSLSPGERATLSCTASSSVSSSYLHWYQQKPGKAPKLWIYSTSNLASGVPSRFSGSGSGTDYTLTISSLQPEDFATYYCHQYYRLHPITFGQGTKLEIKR and report it.
Outgoing: 333000

Incoming: Please report kon for the following binder: C1_IPN92H0061-SG4GK/IPN93L0024-SK1 (antibody, human IgG4 S228P, kappa, name in Kabat numbering, V domains shown, also called IPN92H0061/IPN93L0024) VH: EVMLVESGGGLVKPGGSLRLSCAASGFTKSNYAMSWVRQAPGKGLEWVATISSGGSHTYYLDSVKGRFTISRDNSKDTLYLQMNSLRAEDTALYYCARLFTGHAMDYWGQGTLVTVSS VL: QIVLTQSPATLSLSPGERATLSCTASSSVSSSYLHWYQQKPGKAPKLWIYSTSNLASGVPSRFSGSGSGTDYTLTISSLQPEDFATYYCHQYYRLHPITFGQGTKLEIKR
Outgoing: 236000

Incoming: Answer with the recorded kon of C1_IPN92H0281-SG4GK/IPN93L0091-SK1 (antibody, human IgG4 S228P, kappa, name in Kabat numbering, V domains shown, also called IPN92H0281/IPN93L0091) VH: EVMLVESGGGLVKPGGSLRLSCAASGFTFSNYAMSWVRQAPGKGLEWVATISSGGSKTYELDSVDERFTISRDNSKDTLYLQMNSLRAEDTALYYCARLFTKHAMDYWGQGTLVTVSS VL: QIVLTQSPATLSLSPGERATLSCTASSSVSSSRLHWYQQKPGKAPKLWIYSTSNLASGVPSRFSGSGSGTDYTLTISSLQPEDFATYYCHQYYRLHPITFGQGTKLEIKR only.
Outgoing: 457000

Incoming: Indicate its recorded kon; the binder in question is C1_IPN92H0165-SG4GK/IPN93L0024-SK1 (antibody, human IgG4 S228P, kappa, name in Kabat numbering, V domains shown, also called IPN92H0165/IPN93L0024) VH: EVMLVESGGGLVKPGGSLRLSCAASGFTFSNYAMSWVRQAPGKGLEWVATISSGGSHTYYDDSVKGRFTISRDNSKDTLYLQMNSLRAEDTALYYCARLFTGHAMDYWGQGTLVTVSS VL: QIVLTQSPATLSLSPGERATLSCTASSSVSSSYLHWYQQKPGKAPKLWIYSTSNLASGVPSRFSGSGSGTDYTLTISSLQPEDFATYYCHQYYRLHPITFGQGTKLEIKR
Outgoing: 289000

Incoming: Assign kon to the following record: C1_IPN92H0166-SG4GK/IPN93L0024-SK1 (antibody, human IgG4 S228P, kappa, name in Kabat numbering, V domains shown, also called IPN92H0166/IPN93L0024) VH: EVMLVESGGGLVKPGGSLRLSCAASGFTFSNYAMSWVRQAPGKGLEWVATISSGGSHTYYEDSVKGRFTISRDNSKDTLYLQMNSLRAEDTALYYCARLFTGHAMDYWGQGTLVTVSS VL: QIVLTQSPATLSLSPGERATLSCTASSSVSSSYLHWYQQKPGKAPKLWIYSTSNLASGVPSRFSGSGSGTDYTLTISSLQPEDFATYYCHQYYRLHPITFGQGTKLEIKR
Outgoing: 294000

Incoming: Tell us which kon value is on record for C1_IPN92H0033-SG4GK/IPN93L0072-SK1 (antibody, human IgG4 S228P, kappa, name in Kabat numbering, V domains shown, also called IPN92H0033/IPN93L0072) VH: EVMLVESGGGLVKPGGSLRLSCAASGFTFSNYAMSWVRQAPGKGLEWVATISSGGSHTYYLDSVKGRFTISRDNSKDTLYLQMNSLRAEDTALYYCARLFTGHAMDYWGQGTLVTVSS VL: QIVLTQSPATLSLSPGERATLSCTASSSVKSSYLHWYQQKPGKAPKLWIYSTSNLASGVPSRFSGSGSGTDYTLTISSLQPEDFATYYCHQYYRLHPITFGQGTKLEIKR
Outgoing: 413000
